system: Staphylococcus aureus; test: In vitro antibacterial activity of A5177 strain of Gram positive bacteria Staphylococcus aureus; format: functional
For each record, write down the corresponding MIC.
Give your result in µg/mL as a bare value.

Recorded MIC (compound `CC[C@H]1OC(=O)/C(C)=C/[C@H](C)[C@@H](O[C@@H]2O[C@H](C)C[C@H](N(C)C)[C@H]2O)[C@@](C)(OC)C[C@@H](C)C(=O)[C@H](C)[C@H]2N(NCCCc3ccccc3O)C(=O)O[C@]12C` ): 0.2

Notebook: `CC[C@H]1OC(=O)/C(C)=C/[C@H](C)[C@@H](O[C@@H]2O[C@H](C)C[C@H](N(C)C)[C@H]2O)[C@@](C)(OC)C[C@@H](C)C(=O)[C@H](C)[C@H]2N(NC/C=C/c3ccc(NC(C)=O)cc3)C(=O)O[C@]12C` , MIC read as 0.2

----------
test system: Staphylococcus aureus; test: In vitro antibacterial activity of A5177 strain of Gram positive bacteria Staphylococcus aureus; format: functional
measurement label: MIC (µg/mL)
Please give a number only; it is taken to be in µg/mL.

// returns MIC for `CC[C@H]1OC(=O)/C(C)=C/[C@H](C)[C@@H](O[C@@H]2O[C@H](C)C[C@H](N(C)C)[C@H]2O)[C@@](C)(OC)C[C@@H](C)C(=O)[C@H](C)[C@H]2N(NCCCc3ccccc3[N+](=O)[O-])C(=O)O[C@]12C` with Staphylococcus aureus; value = 0.01

# `CC[C@H]1OC(=O)/C(C)=C/[C@H](C)[C@@H](O[C@@H]2O[C@H](C)C[C@H](N(C)C)[C@H]2O)[C@@](C)(OC)C[C@@H](C)C(=O)[C@H](C)[C@H]2N(NCc3ccc(Cl)cc3)C(=O)O[C@]12C` with Staphylococcus aureus: MIC is 0.2

Simply: `CC[C@H]1OC(=O)/C(C)=C/[C@H](C)[C@@H](O[C@@H]2O[C@H](C)C[C@H](N(C)C)[C@H]2O)[C@@](C)(OC)C[C@@H](C)C(=O)[C@H](C)[C@H]2N(NCCCc3ccccc3)C(=O)O[C@]12C` , Staphylococcus aureus, MIC = 0.1

MIC for Staphylococcus aureus with input `CC[C@H]1OC(=O)/C(C)=C/[C@H](C)[C@@H](O[C@@H]2O[C@H](C)C[C@H](N(C)C)[C@H]2O)[C@@](C)(OC)C[C@@H](C)C(=O)[C@H](C)[C@H]2N(NCCc3ccccc3)C(=O)O[C@]12C` equals 0.78

----------
tested on: Streptococcus pyogenes; assay: In vitro antibacterial activity of 930 strain of Gram positive bacteria Streptococcus pyogenes; assay type: functional
I'd be grateful if you could share measured MIC for these entries.
Please reply with the bare figure in µg/mL and do not write the unit itself.

Considering `CC[C@H]1OC(=O)/C(C)=C/[C@H](C)[C@@H](O[C@@H]2O[C@H](C)C[C@H](N(C)C)[C@H]2O)[C@@](C)(OC)C[C@@H](C)C(=O)[C@H](C)[C@H]2N(NCc3ccc([N+](=O)[O-])cc3)C(=O)O[C@]12C` , its MIC with Streptococcus pyogenes was recorded as 128

Noted MIC for `CC[C@H]1OC(=O)/C(C)=C/[C@H](C)[C@@H](O[C@@H]2O[C@H](C)C[C@H](N(C)C)[C@H]2O)[C@@](C)(OC)C[C@@H](C)C(=O)[C@H](C)[C@H]2N(NCc3c(O)ccc4ccccc34)C(=O)O[C@]12C` , tested on Streptococcus pyogenes: 32

Summary line: `CC[C@H]1OC(=O)/C(C)=C/[C@H](C)[C@@H](O[C@@H]2O[C@H](C)C[C@H](N(C)C)[C@H]2O)[C@@](C)(OC)C[C@@H](C)C(=O)[C@@H](C)[C@H]2N(NCCCc3ccccc3)C(=O)O[C@]12C` , Streptococcus pyogenes, reported MIC = 8

Measured on Streptococcus pyogenes, CC[C@H]1OC(=O)C(C)C(=O)[C@H](C)[C@@H](O[C@@H]2O[C@H](C)C[C@H](N(C)C)[C@H]2O)[C@@](C)(OC)C[C@@H](C)C(=O)[C@H](C)[C@H]2N(NCCCc3ccnc4ccccc34)C(=O)O[C@]12C (some centres undefined) has a documented MIC of 2

These entries and their values trace back to ChEMBL document CHEMBL1131216.
